Form field: cytotoxicity at 70.5 h (one value per entry).
# test.summary: Human HepG2 cell viability assay in 384 well format
# Type: toxicity, cell-based
# Set-up: dose 125 nL, time 70.5 hour; concentration not given beside the values
# condition.description: HepG2 cells, read-out: Inhibition
// return numeric value only (unit: %, not printed)

# input Requested read-out: cytotoxicity at 70.5 h. Entry: `CN(Cc1nncn1C)c1nccc(N2CCC(O)CC2)n1`
# output -4.03

# input Requested read-out: cytotoxicity at 70.5 h. Entry: CN1CCN(C)C(CNC(=O)N(C)Cc2ccccc2Cl)C1 (stereo not given)
# output -0.256

---
# input Requested read-out: cytotoxicity at 70.5 h. Entry: `CCOCCN1C[C@H](C(=O)Nc2cccnc2)[C@@H]2CCO[C@@H]2C1`
# output -4.15

# input Requested read-out: cytotoxicity at 70.5 h. Entry: Cc1nn(C)c(C)c1CCC(=O)N1CCCOC(Cn2cccn2)C1 (stereo not given)
# output -2.69

# input Requested read-out: cytotoxicity at 70.5 h. Entry: `CN(Cc1nc(Cc2cccc(C(F)(F)F)c2)no1)C1CCOCC1`
# output -5.63

----------
Form field: cytotoxicity at 70.5 h (one value per entry).
# test.summary: Human HepG2 cell viability assay in 384 well format
# Type: toxicity, cell-based
# Parameters: dose 125 nL, time 70.5 hour; concentration not given beside the values
# condition.description: HepG2 cells, read-out: Inhibition
Respond with a number, then the unit of measure.

# input Requested read-out: cytotoxicity at 70.5 h. Entry: `O=C(NCc1sc2ccccc2c1Cl)c1cc2n(n1)CCNC2`
# output 18.3%

---
# input Requested read-out: cytotoxicity at 70.5 h. Entry: `NC(=O)CCc1cccc(C2CCNCC2)n1`
# output 1.83%

# input Requested read-out: cytotoxicity at 70.5 h. Entry: `CN(Cc1ccccc1)S(=O)(=O)N1C[C@@H](C(=O)O)[C@H](C2CC2)C1`
# output -6.58%

# input Requested read-out: cytotoxicity at 70.5 h. Entry: O=C(NCC1CCOC1)c1cc(-c2ccc(Cl)cc2)n[nH]1 (stereo not given)
# output 20.6%

----------
# test.summary: Human HepG2 cell viability assay in 384 well format
# Format: toxicity, cell-based
# Design: dose 125 nL, time 70.5 hour; concentration not given beside the values
# condition.description: HepG2 cells, read-out: Inhibition
assay.readout: cytotoxicity at 70.5 h (%)
// return numeric value only (unit: %, not printed)

Please review the following examples before continuing.
# input Requested read-out: cytotoxicity at 70.5 h. Entry: `Clc1ccc(C2(NCc3noc(C4CC4)n3)CCOCC2)cc1`
# output -8.54

# input Requested read-out: cytotoxicity at 70.5 h. Entry: `CCS(=O)(=O)NCCNc1c(C#N)cnc2c(F)cc(F)cc12`
# output -0.0012

# input Requested read-out: cytotoxicity at 70.5 h. Entry: `Cc1cc(C)n(NC(=O)c2cccc3c2OCC3)c(=O)c1`
# output -6.18

---
# input Requested read-out: cytotoxicity at 70.5 h. Entry: Cc1nn(C)c(C)c1C1CCCN1C(=O)c1ccc(N(C)C)nc1 (stereo not drawn)
# output -0.439

# input Requested read-out: cytotoxicity at 70.5 h. Entry: `O=C(O)[C@@H]1CN(C(=O)CC2CCCC2)C[C@H]1c1ccc(F)cc1`
# output -6.35

# input Requested read-out: cytotoxicity at 70.5 h. Entry: `Cc1ccc(C)c(S(=O)(=O)NCCC(=O)NCc2ccoc2)c1`
# output -11.7

# input Requested read-out: cytotoxicity at 70.5 h. Entry: Cc1nc(CN(C)C2CCN(Cc3ccc4c(c3)CCC4)C2)no1 (stereo not drawn)
# output -9.34

# input Requested read-out: cytotoxicity at 70.5 h. Entry: O=C(CN1CCCC1c1nc(-c2ccccn2)no1)N1CCOCC1 (stereo not drawn)
# output -7.89

# input Requested read-out: cytotoxicity at 70.5 h. Entry: `CCn1cnnc1C1CCN(C(=O)c2ccccc2OC)CC1`
# output -8.77

# input Requested read-out: cytotoxicity at 70.5 h. Entry: `O=C(Cn1cc(I)cn1)Nc1cccnc1`
# output -9.49

# input Requested read-out: cytotoxicity at 70.5 h. Entry: `Cc1cccc(CN2C[C@@H](CN3CCCN(C)CC3)C[C@H](CO)C2)n1`
# output -5.2

----------
# test.summary: Human HepG2 cell viability assay in 384 well format
# Assay type: toxicity, cell-based
# Design: dose 125 nL, time 70.5 hour; concentration not given beside the values
# condition.description: HepG2 cells, read-out: Inhibition
assay.readout: cytotoxicity at 70.5 h (%)
// return numeric value only (unit: %, not printed)

Please review the following examples before continuing.
# input Requested read-out: cytotoxicity at 70.5 h. Entry: CS(=O)(=O)NCCN1CCCC1c1ccc(Cl)cc1 (stereo not drawn)
# output 12

# input Requested read-out: cytotoxicity at 70.5 h. Entry: `COc1cc(NCc2ccncc2)c(-c2nn[nH]n2)cc1OC`
# output -1.7

# input Requested read-out: cytotoxicity at 70.5 h. Entry: `Fc1cccc(CN2CCO[C@H]3[C@@H](OCc4ccccn4)CC[C@@H]32)c1`
# output -15.5

---
# input Requested read-out: cytotoxicity at 70.5 h. Entry: `COc1ccc(C(=O)N2CCC(Nc3cccnn3)CC2)c(OC)c1`
# output -6.9

# input Requested read-out: cytotoxicity at 70.5 h. Entry: Cc1occc1C(=O)N1CCCC2(CCN(c3ccsc3)C2=O)C1 (stereo not drawn)
# output -6.53

# input Requested read-out: cytotoxicity at 70.5 h. Entry: `O=C(c1nc2c(o1)CN(CC1CC1)C2)N1CCCC1`
# output -13.1

# input Requested read-out: cytotoxicity at 70.5 h. Entry: CC(C)c1nc(C2CCCN(C(=O)CCn3ccccc3=O)C2)no1 (stereo not drawn)
# output 22.5

# input Requested read-out: cytotoxicity at 70.5 h. Entry: `Nc1ncccc1CN1CCCn2nc(CCC(=O)NC3CC3)cc2C1`
# output -2.41

----------
# test.summary: Human HepG2 cell viability assay in 384 well format
# Format: toxicity, cell-based
# Design: dose 125 nL, time 70.5 hour; concentration not given beside the values
# condition.description: HepG2 cells, read-out: Inhibition
assay.readout: cytotoxicity at 70.5 h (%)
// return numeric value only (unit: %, not printed)

# input Requested read-out: cytotoxicity at 70.5 h. Entry: `CO[C@@H]1CN(C)S(=O)(=O)[C@@]12CCN(Cc1ccccc1)C2`
# output -7.27

# input Requested read-out: cytotoxicity at 70.5 h. Entry: Cc1ccc(C)n1-c1c(C(=O)NCC(c2ccsc2)N(C)C)cnn1C (stereo unspecified)
# output -14.4

# input Requested read-out: cytotoxicity at 70.5 h. Entry: `Cc1csc(NC(=O)c2cnc(C3CCNCC3)cn2)n1`
# output -11.9

# input Requested read-out: cytotoxicity at 70.5 h. Entry: COC(=O)CCCC(=O)N(C)CC1Cc2ccccc2CN1C (stereo unspecified)
# output -8.82

# input Requested read-out: cytotoxicity at 70.5 h. Entry: `CN(C)C(=O)CN1C[C@@H]2CC[C@H](C1)N(C(=O)CCn1cncn1)C2`
# output -12.6

# input Requested read-out: cytotoxicity at 70.5 h. Entry: `CC(=O)N1CCCN(C(=O)CN(C)c2ccc(Cl)cn2)CC1`
# output 10.7

# input Requested read-out: cytotoxicity at 70.5 h. Entry: Cc1ccsc1CN(C)c1cc(N2CCCC2CO)ncn1 (stereo unspecified)
# output -3.13

# input Requested read-out: cytotoxicity at 70.5 h. Entry: O=C(c1cc[nH]n1)N1CCC(F)(F)C2(CCN(c3ccccn3)C2)C1 (stereo unspecified)
# output 11

# input Requested read-out: cytotoxicity at 70.5 h. Entry: `CN(C)C(=O)CCNC(=O)NCc1ccc(Br)cc1Cl`
# output 17.2

# input Requested read-out: cytotoxicity at 70.5 h. Entry: c1ccc(OCC2CC3(CCN(Cc4ccncc4)CC3)CO2)nc1 (stereo unspecified)
# output -18.6

# input Requested read-out: cytotoxicity at 70.5 h. Entry: Cn1ccnc1C(O)c1ccccc1N1CCN(CC2CCCC2)CC1 (stereo unspecified)
# output -3.89

# input Requested read-out: cytotoxicity at 70.5 h. Entry: Cn1cnnc1C1CCCN(C(=O)c2ccccc2Cl)C1 (stereo unspecified)
# output -4.06

# input Requested read-out: cytotoxicity at 70.5 h. Entry: `CCN(CC)[C@H]1COC[C@@H]2CN(Cc3cnn(C)c3)C[C@@H]21`
# output -3.13

# input Requested read-out: cytotoxicity at 70.5 h. Entry: CCCn1cnnc1CNC(=O)C1COc2ccc(OC)cc2C1 (stereo unspecified)
# output 20.1

# input Requested read-out: cytotoxicity at 70.5 h. Entry: COc1ccc(Oc2cncc(C3CCCN3C(C)=O)n2)cc1 (stereo unspecified)
# output 31.7

# input Requested read-out: cytotoxicity at 70.5 h. Entry: OC(CNCCn1cccn1)c1ccc2c(c1)OCCO2 (stereo unspecified)
# output -2.85

# input Requested read-out: cytotoxicity at 70.5 h. Entry: `NC(=O)COc1ccc(CNCc2ccc(F)cc2)cc1`
# output -4.15

# input Requested read-out: cytotoxicity at 70.5 h. Entry: `O=C([C@H]1C[C@H]2OCC[C@H]2N(CC2CC2)C1)N1CCCC1`
# output 5.6

# input Requested read-out: cytotoxicity at 70.5 h. Entry: `CC(C)OC[C@H]1CCC[C@]12CN(S(=O)(=O)c1cccs1)CCO2`
# output -8.77

# input Requested read-out: cytotoxicity at 70.5 h. Entry: N#Cc1cccc(CN(CC(=O)N2CCCC2)CC2CCCO2)c1 (stereo unspecified)
# output 0.804

# input Requested read-out: cytotoxicity at 70.5 h. Entry: `Cn1nccc1-c1cc(C2CCN(S(C)(=O)=O)CC2)ccn1`
# output -7.68

# input Requested read-out: cytotoxicity at 70.5 h. Entry: CN1C(=O)C2(CCN(CC3CCC3)C2)c2ccccc21 (stereo unspecified)
# output 9.83

# input Requested read-out: cytotoxicity at 70.5 h. Entry: `Cc1cc(-c2nc(C3(NC(=O)OC(C)(C)C)CCC3)no2)on1`
# output -5.47

# input Requested read-out: cytotoxicity at 70.5 h. Entry: `CN(C)c1ccnc(N2CCC(NCCOc3ccccc3)CC2)n1`
# output 19.6
